Tested on: Caco-2
Assay: Cytotoxicity against human Caco2 cells assessed as surviving fraction at 1 uM after 24 hrs by MTT assay relative to control
Assay type: functional
Use 0.4 as the dividing line for Ratio, with the line itself on the 1 side and lower values as -1.

compound	label_value
NS(=O)(=O)c1ccc(Nc2nc3nc(=S)[nH]c(-c4ccccc4)c3s2)cc1	-1

Ask: Please indicate if the recorded Ratio for NS(=O)(=O)c1ccc(NC2=NC(=O)/C(=C/c3ccc(Cl)cc3)S2)cc1 meets or exceeds 0.4.
Reply: -1

Ask: # check: Ratio of COc1ccc(-c2[nH]c(=S)nc3nc(Nc4ccc(S(N)(=O)=O)cc4)sc23)cc1 is greater than or equal to 0.4
Reply: 1

Ask: API: above_or_equal(metric=Ratio, cutoff=0.4) for item NS(=O)(=O)c1ccc(Nc2nc3nc(=O)[nH]c(-c4ccc(Cl)cc4)c3s2)cc1
Reply: 1

Ask: Could you please find out whether COc1cccc2c1C(=O)c1c(O)c3c(c(O)c1C2=O)C[C@@](O)(C(=O)CO)C[C@@H]3O[C@H]1C[C@H](N)[C@H](O)[C@H](C)O1 [DOXORUBICIN] has Ratio that meets 0.4 or exceeds it?
Reply: 1

* * *

Collected IC50 values appear next to each entry.
Tested on: Caco-2
Experiment: Cytotoxicity against human Caco2 cells assessed as cell viability after 24 hrs by MTT assay
Assay type: functional, cell-based
Conditions: Caco-2, 24 h
Give the value, in units of nM, as a plain number.

Solved cases below.
NS(=O)(=O)c1ccc(Nc2nc3nc(=S)[nH]c(-c4ccccc4)c3s2)cc1 333
NS(=O)(=O)c1ccc(Nc2nc3noc(-c4ccc(Cl)cc4)c3s2)cc1 333
COc1ccc(-c2[nH]c(=S)nc3nc(Nc4ccc(S(N)(=O)=O)cc4)sc23)cc1 667

Ask: Report its IC50 with Caco-2 as the test system: COc1cccc2c1C(=O)c1c(O)c3c(c(O)c1C2=O)C[C@@](O)(C(=O)CO)C[C@@H]3O[C@H]1C[C@H](N)[C@H](O)[C@H](C)O1
Reply: 63300

* * *

Test system: Caco-2
Assay: Cytotoxicity against human Caco2 cells assessed as cell viability after 24 hrs by MTT assay
Type: functional, cell-based
Conditions: Caco-2, 24 h
Quick list: pIC50 per entry.
Note on pIC50: it is the negative log10 of concentration, concentration in mol/L.

Use these answered entries as a reference point.
NS(=O)(=O)c1ccc(Nc2nc3nc(=S)[nH]c(-c4ccc(Cl)cc4)c3s2)cc1 6.48
NS(=O)(=O)c1ccc(NC2=NC(=O)/C(=C/c3ccccc3)S2)cc1 6.48
NS(=O)(=O)c1ccc(Nc2nc3nc(=O)[nH]c(-c4ccccc4)c3s2)cc1 6.48

Ask: Please report pIC50 for the following molecule: COc1ccc(/C=C2\SC(Nc3ccc(S(N)(=O)=O)cc3)=NC2=O)cc1
Reply: 5.88

Ask: Let me know recorded pIC50 for NS(=O)(=O)c1ccc(Nc2nc3nc(=O)[nH]c(-c4ccc(Cl)cc4)c3s2)cc1 , thanks.
Reply: 4.90

* * *

Tested on: Caco-2
Experiment: Cytotoxicity against human Caco2 cells assessed as surviving fraction at 50 uM after 24 hrs by MTT assay relative to control
Format: functional
Overview of reported Ratio across a group of molecules:
Give only the figure.

Use these answered entries as a reference point.
molecule	Ratio
COc1cccc2c1C(=O)c1c(O)c3c(c(O)c1C2=O)C[C@@](O)(C(=O)CO)C[C@@H]3O[C@H]1C[C@H](N)[C@H](O)[C@H](C)O1 [DOXORUBICIN]	0.552
NS(=O)(=O)c1ccc(Nc2nc3nc(=S)[nH]c(-c4ccccc4)c3s2)cc1	0.223
NS(=O)(=O)c1ccc(Nc2nc3nc(=O)[nH]c(-c4ccccc4)c3s2)cc1	0.229
NS(=O)(=O)c1ccc(Nc2nc3noc(-c4ccccc4)c3s2)cc1	0.295
O=c1[nH]cc(F)c(=O)[nH]1 [FLUOROURACIL]	0.525

Ask: Fill in Ratio for record COc1ccc(-c2[nH]c(=S)nc3nc(Nc4ccc(S(N)(=O)=O)cc4)sc23)cc1
Reply: 0.186

* * *

Ratio values by entry
System: Caco-2
Assay: Cytotoxicity against human Caco2 cells assessed as surviving fraction at 1 uM after 24 hrs by MTT assay relative to control
Type: functional
Reply with the value as a number alone.

Reference set, count: 8
compound	Ratio
NS(=O)(=O)c1ccc(NC2=NC(=O)/C(=C/c3ccccc3)S2)cc1	0.348
COc1ccc(-c2onc3nc(Nc4ccc(S(N)(=O)=O)cc4)sc23)cc1	0.412
NS(=O)(=O)c1ccc(Nc2nc3nc(=S)[nH]c(-c4ccc(Cl)cc4)c3s2)cc1	0.433
COc1ccc(-c2[nH]c(=O)nc3nc(Nc4ccc(S(N)(=O)=O)cc4)sc23)cc1	0.477
O=c1[nH]cc(F)c(=O)[nH]1 [FLUOROURACIL]	0.405
NS(=O)(=O)c1ccc(Nc2nc3noc(-c4ccccc4)c3s2)cc1	0.442
NS(=O)(=O)c1ccc(Nc2nc3noc(-c4ccc(Cl)cc4)c3s2)cc1	0.319
NS(=O)(=O)c1ccc(Nc2nc3nc(=O)[nH]c(-c4ccccc4)c3s2)cc1	0.371

Ask: Report measured Ratio; entry is COc1ccc(/C=C2\SC(Nc3ccc(S(N)(=O)=O)cc3)=NC2=O)cc1
Reply: 0.281

* * *

System: Caco-2
Assay: Cytotoxicity against human Caco2 cells assessed as cell viability after 24 hrs by MTT assay
Format: functional, cell-based
Settings: Caco-2, 24 h
Catalogue of molecules with associated IC50
Answer in µM, number only, no unit symbol.

NS(=O)(=O)c1ccc(NC2=NC(=O)/C(=C/c3ccc(Cl)cc3)S2)cc1 0.667
COc1ccc(-c2[nH]c(=O)nc3nc(Nc4ccc(S(N)(=O)=O)cc4)sc23)cc1 0.667
O=c1[nH]cc(F)c(=O)[nH]1 31
NS(=O)(=O)c1ccc(Nc2nc3noc(-c4ccccc4)c3s2)cc1 0.669

Ask: Param request: IC50 | system Caco-2 | item COc1ccc(-c2onc3nc(Nc4ccc(S(N)(=O)=O)cc4)sc23)cc1
Reply: 0.559

* * *

Consider the following molecules and their measured Ratio readings.
Tested on: Caco-2
Assay: Cytotoxicity against human Caco2 cells assessed as surviving fraction at 50 uM after 24 hrs by MTT assay relative to control
Type: functional
The answer should be written as a number, with no unit following it.

Some entries whose results are on file:
COc1ccc(/C=C2\SC(Nc3ccc(S(N)(=O)=O)cc3)=NC2=O)cc1 0.416
NS(=O)(=O)c1ccc(Nc2nc3noc(-c4ccc(Cl)cc4)c3s2)cc1 0.202
NS(=O)(=O)c1ccc(NC2=NC(=O)/C(=C/c3ccccc3)S2)cc1 0.422
NS(=O)(=O)c1ccc(Nc2nc3nc(=S)[nH]c(-c4ccc(Cl)cc4)c3s2)cc1 0.339
COc1ccc(-c2[nH]c(=O)nc3nc(Nc4ccc(S(N)(=O)=O)cc4)sc23)cc1 0.257
NS(=O)(=O)c1ccc(Nc2nc3nc(=O)[nH]c(-c4ccc(Cl)cc4)c3s2)cc1 0.156

Ask: Give Ratio for the following molecule: NS(=O)(=O)c1ccc(NC2=NC(=O)/C(=C/c3ccc(Cl)cc3)S2)cc1
Reply: 0.086

Ask: Identify measured Ratio corresponding to COc1ccc(-c2onc3nc(Nc4ccc(S(N)(=O)=O)cc4)sc23)cc1
Reply: 0.229
